Tested on: Verconica persica (VERPE)
Assay: Pre-emergence herbicidal action against VERPE
Format: in vivo
Settings: dosage 320 g/ha
assay_readout: Pre-emergence action against VERPE in %

Use the examples below as a reference point.
INSERT INTO results (compound, assay_readout, result) VALUES
  ('COC(=O)[C@@H](C)Oc1nn(-c2nc(F)ccc2F)c(-c2ccc(F)nc2)c1C1CC1 [Example I-298]', 'Pre-emergence action against VERPE in %', '100%'),
  ('COC(=O)COc1nn(-c2ncccc2F)c(-c2ccc(F)nc2)c1C1CC1 [Example I-42]', 'Pre-emergence action against VERPE in %', '100%'),
  ('C[C@@H](Oc1nn(-c2nc(F)ccc2F)c(-c2ccc(F)nc2)c1Cl)C(=O)O [Example I-311]', 'Pre-emergence action against VERPE in %', '90%'),
  ('COC(=O)CNC(=O)COc1nn(-c2ccccn2)c(-c2ccc(F)nc2)c1C1CC1 [Example I-70]', 'Pre-emergence action against VERPE in %', '80%'),
  ('CCOC(=O)COc1nn(-c2ncccc2F)c(-c2ccc(F)nc2)c1C(F)(F)F [Example I-56]', 'Pre-emergence action against VERPE in %', '100%'),
  ('CCOC(=O)[C@@H](C)Oc1nn(-c2nc(F)ccc2F)c(-c2cncc(F)c2)c1Cl [Example I-208]', 'Pre-emergence action against VERPE in %', '100%'),
  ('COC(=O)[C@@H](C)Oc1nn(-c2nc(F)ccc2F)c(-c2cncc(F)c2)c1Br [Example I-191]', 'Pre-emergence action against VERPE in %', '100%'),
  ('CCOC(=O)COc1nn(-c2nc(F)ccc2F)c(-c2ccc(F)nc2)c1Br [Example I-330]', 'Pre-emergence action against VERPE in %', '90%');

Bench note: what Pre-emergence action against VERPE in % did C[C@@H](Oc1nn(-c2ncccc2F)c(-c2ccc(F)nc2)c1Br)C(=O)OCc1ccccn1 [Example I-52] show?
100%

And for O=C(O)C1CCCN1C(=O)COc1nn(-c2ccccn2)c(-c2ccc(F)nc2)c1Br (stereo not drawn) [Example I-111] ?
90%

And for O=C(O)COc1nn(-c2ncccc2F)c(-c2ccc(F)nc2)c1Br [Example I-17] ?
100%

And for COC(=O)C(C)NC(=O)[C@@H](C)Oc1nn(-c2ccccn2)c(-c2cncc(F)c2)c1Br (stereo partly drawn) [Example I-190] ?
100%

And for C[C@@H](Oc1nn(-c2ccc(F)cn2)c(-c2cncc(F)c2)c1Br)C(=O)O [Example I-13] ?
80%

And for COC(=O)[C@@H](C)Oc1nn(-c2ncccc2F)c(-c2cccnc2)c1C#N [Example I-04] ?
100%

And for C=CCNC(=O)COc1nn(-c2ncccc2F)c(-c2ccc(F)nc2)c1Br [Example I-31] ?
90%

And for O=C(COc1nn(-c2ncccc2F)c(-c2ccc(F)nc2)c1Br)OCc1ccccn1 [Example I-46] ?
100%

And for CCOC(=O)COc1nn(-c2ccnc(Cl)c2)c(-c2ccc(F)nc2)c1Br [III-24] ?
100%

And for C[C@@H](Oc1nn(-c2ccccn2)c(-c2cncc(F)c2)c1Br)C(=O)O [Example I-79] ?
100%

And for COC(=O)CNC(=O)COc1nn(-c2ccccn2)c(-c2ccc(F)nc2)c1F [Example I-377] ?
80%

And for CCOC(=O)COc1nn(-c2ccccn2)c(-c2ccc(F)nc2)c1Br [Example I-02] ?
90%

And for COC(=O)[C@H](C)COC(=O)COc1nn(-c2ccccn2)c(-c2cncc(F)c2)c1Cl [Example I-192] ?
90%

And for CCOC(=O)COc1nn(-c2ncccc2C(F)(F)F)c(-c2cncc(F)c2)c1Br [Example I-202] ?
90%

And for COC(=O)[C@H](C)NC(=O)COc1nn(-c2ccccn2)c(-c2ccc(F)nc2)c1Cl [Example I-87] ?
90%

And for CCOC(=O)[C@@H](C)Oc1nn(-c2ncccc2Cl)c(-c2ccc(F)nc2)c1Br [Example I-27] ?
100%

And for CCOC(=O)[C@@H](C)Oc1nn(-c2nc(F)ccc2F)c(-c2cncc(F)c2)c1Br [Example I-388] ?
100%

And for COC(=O)CCOC(=O)[C@@H](C)Oc1nn(-c2ccccn2)c(-c2cncc(F)c2)c1Cl [Example I-196] ?
100%

And for CCOC(=O)COc1nn(-c2nc(F)ccc2F)c(-c2ccc(F)nc2)c1C1CC1 [Example I-348] ?
90%

Ref: patent US20240041042A1
